Exercise: state measured inhibition for each of the molecules provided.
# target_or_test_system: Cytochrome P450 2C19 (Homo sapiens)
# assay_explanation: blockers of cytochrome P450 2C19 activity – biochemical, luminescence, ADME assay, primary screen (AID 778);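 further: plate controls were negative control wells for no effect and 2.5 mM tranylcypromine positive control for full effect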
# experimental_conditions: CYP2C19 Supersomes, luciferin-H EGE luminescence, 30 min; at 5 µM; hits give high values
The campaign covered roughly 96,000 compounds. About 20,000 (21%) were called active. The list is a sample of the results.
Field format: number, assumed %, no unit text.

IN: Entry under review: N#Cc1nc(N)nc(N(c2ccccc2)c2ccccc2)n1 . Reported inhibition?
OUT: 10.4

IN: Entry under review: O=C(O)c1cscn1 . Reported inhibition?
OUT: -12.7

IN: Entry under review: COCCNC(=O)C(c1ccc(C)o1)N(Cc1cccs1)C(=O)c1snc(C(N)=O)c1N (configuration not stated) . Reported inhibition?
OUT: 2.1

IN: Entry under review: O=C(c1ccco1)N1CCN(C(=O)C2CC(c3ccc(Cl)c(Cl)c3)=NO2)CC1 (configuration not stated) . Reported inhibition?
OUT: 53.8

IN: Entry under review: Cc1c(-c2ccccc2)nc(N)c(C#N)c1-c1cccs1 . Reported inhibition?
OUT: 0.7

IN: Entry under review: O=C(NC1CCN(Cc2ccccc2)CC1)c1ccccc1F . Reported inhibition?
OUT: 6.3

IN: Entry under review: O=C1NC(c2cc3c(cc2Cl)OCO3)Oc2ccccc21 (configuration not stated) . Reported inhibition?
OUT: 55.5

IN: Entry under review: O=C(c1ccco1)N1CCN(c2cccc(Cl)c2)CC1 . Reported inhibition?
OUT: 19.9

IN: Entry under review: CC(C)c1cc(C(=O)O)n[nH]1 . Reported inhibition?
OUT: -11.8

IN: Entry under review: O=C(CNC(=O)OCc1ccccc1)Oc1cc2oc(=O)cc(-c3ccccc3)c2cc1Cl . Reported inhibition?
OUT: 27.8

IN: Entry under review: CCOc1ccc(-c2cn(S(=O)(=O)c3cccc4nsnc34)nc2N)cc1 . Reported inhibition?
OUT: 3.8

IN: Entry under review: Cc1ccc(-n2c(=O)cc(N3CCN(Cc4ccccc4)CC3)[nH]c2=O)cc1 . Reported inhibition?
OUT: 1.5

###

# target_or_test_system: Cytochrome P450 2C19 (Homo sapiens)
# assay_explanation: blockers of cytochrome P450 2C19 activity – biochemical, luminescence, ADME assay, primary screen (AID 778);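 further: plate controls were negative control wells for no effect and 2.5 mM tranylcypromine positive control for full effect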
# experimental_conditions: CYP2C19 Supersomes, luciferin-H EGE luminescence, 30 min; at 5 µM; hits give high values
Out of some 96,000 compounds screened, about 20,000 (21%) were called active. Only a sample is shown.
test_readout: inhibition (%)
Field format: number, assumed %, no unit text.

IN: Entry under review: CCOc1ccc(CC(=O)Nc2ccc(S(=O)(=O)Nc3cc(C)on3)cc2)cc1OCC . Reported inhibition?
OUT: 2

IN: Entry under review: COc1ccc(C(=O)Nc2ccc(F)cc2F)cc1 . Reported inhibition?
OUT: 12.1

IN: Entry under review: COc1ccc(OC)c(NC(=O)Cn2c(=O)oc3ccccc32)c1 . Reported inhibition?
OUT: 42.2

IN: Entry under review: CC(=O)c1nn(-c2cccc(Br)c2)cc1C(=O)c1cccc2ccccc12 . Reported inhibition?
OUT: 9.4

IN: Entry under review: CCOC(=O)c1sc(C)c2c1NC(C)(c1cccc3ccccc13)NC2=O (stereo unspecified) . Reported inhibition?
OUT: 82

IN: Entry under review: CCOc1ccc(S(=O)(=O)Nc2ccc(S(=O)(=O)Nc3cc(OC)ccc3OC)cc2)cc1 . Reported inhibition?
OUT: 91.8

IN: Entry under review: Cc1ccsc1C(=O)OCC(=O)c1cc2ccccc2o1 . Reported inhibition?
OUT: 44.1

IN: Entry under review: CCOc1ccccc1NC(=O)Nc1cc(OC)ccc1OC . Reported inhibition?
OUT: 1.1

IN: Entry under review: CC1CCc2sc3nc(N4CCN(CCO)CC4)n4ncnc4c3c2C1 (stereo unspecified) . Reported inhibition?
OUT: 37.2

IN: Entry under review: CCOc1ccc(S(=O)(=O)Nc2nc3cc(OC)ccc3s2)cc1 . Reported inhibition?
OUT: 16.3

IN: Entry under review: Cc1c(C(=O)NCC2CCCO2)sc2nc(-c3ccccc3)cn12 (stereo unspecified) . Reported inhibition?
OUT: 27.4

Hello, the source for this data is PubChem BioAssay AID778, in case you need it.
